- EXPERIMENT_DESCRIPTION: Biodistribution in HEK293-hsst3+ tumor-bearing mice
- Assay type: in vivo
- RUN_CONDITIONS: mouse, lung, iv, 10 pmol total peptide, total radioactivity; HEK293-hsst3+ tumor SCID mice, 4 h pi; mean ± SD; read-out: Lung uptake
REPORTED_PROPERTY: tissue uptake at 4 h (%ID/g)
Give just the number in %ID/g; leave the unit off.

Please list tissue uptake at 4 h recorded for the molecule C[C@H](NC(=O)CN1CCN(CC(=O)O)CCN(CC(=O)O)CCN(CC(=O)O)CC1)C(=O)NCC(=O)N[C@H]1CSSC[C@@H](C(=O)O)NC(=O)[C@H](CO)NC(=O)[C@H]([C@@H](C)O)NC(=O)[C@H](Cc2ccccc2)NC(=O)[C@H]([C@@H](C)O)NC(=O)[C@H](CCCCN)NC(=O)[C@@H](Cc2c[nH]c3ccccc23)NC(=O)[C@H](Cc2ccccc2)NC(=O)[C@H](Cc2ccccc2)NC(=O)[C@H](CC(N)=O)NC(=O)[C@H](CCCCN)NC1=O [[^111In]AT2S, metal not drawn]
0.68
